Entry source: patent US12263248B2

# Test system: IL-6, IP-10
# assayText: Cytokine induction in mice upon intravenous administration
# Format: in vivo
# Design: unit not given here
# runConditions: intravenous, 0.5 mpk, 6 hours
With a cut-off of 600, any Cytokine induction IP-10 strictly below it is called MET; any Cytokine induction IP-10 meeting it or above is called NOT MET.

Sample answers from the record:
{"compound": "CCCCCCCCCOC(=O)CCCCCCCN(CCO)CCCCCCCC(=O)OC(CCCCCCCC)CCCCCCCC", "classLabel": "MET"}
{"compound": "CCCCCCCCCOC(=O)CCCN(CCO)CCCCCCCC(=O)OC(CCCCCCCC)CCCCCCCC", "classLabel": "NOT MET"}
{"compound": "CCCCCCCC/C=C\\COC(=O)CCCCCN(CCO)CCCCCC(=O)OC/C=C\\CCCCCCCC", "classLabel": "MET"}
{"compound": "CCCCC/C=C\\C/C=C\\CCCCCCCCN(CCO)CCCCCCCC(=O)OC(CCCCCCCC)CCCCCCCC", "classLabel": "MET"}
{"compound": "CCCCCCCCC(CCCCCCCC)OC(=O)CCCCCCCN(CCO)CCCCCCCC(=O)OC(CCCCCCCC)CCCCCCCC", "classLabel": "NOT MET"}

Asked: Hi there! Is Cytokine induction IP-10 for `CCCCCCCCCOC(=O)CCCCCCCN(CCO)CCCCCCCCCC(=O)OC(CCCCCCCC)CCCCCCCC` below 600, do you know?
Given back: NOT MET

Asked: Then this compound: CCCCC/C=C\C/C=C\CCCCCCCCC(CCCCCCCC/C=C\C/C=C\CCCCC)OC(=O)CCCN(C)C [MC3, DLin-MC3-DMA, reference compound]
Given back: MET

Asked: Then `CCCCCCCCCOC(=O)CCCCCCCN(CCCCCCCC(=O)OC(CCCCCCCC)CCCCCCCC)C[C@@H](C)O` ?
Given back: MET

Asked: Now the same for `CCCCCCCCCCCCCCCCCCN(CCO)CCCCCCCC(=O)OC(CCCCCCCC)CCCCCCCC`
Given back: NOT MET

Asked: Entry `CCCCCCCCC(CCCCCCCC)OC(=O)CCCCCCCN(CCO)CCCCCC` please
Given back: MET

* * *

# assayText: Particle size and polydispersity index of nanoparticle compositions (Zetasizer Nano ZS)
# Type: physicochemical
# runConditions: Table 1A
propertyName: PDI
One number for each entry.

Use the examples below as a reference point.
{"compound": "CCCCCCCCC(CCCCCCCC)OC(=O)CCCCCCCN(CCO)CCCC(=O)OCCCCCCC", "PDI": 0.19}
{"compound": "CCCCCCCCCOC(=O)CCCCCCCN(CCO)CCCCCCCOP(=O)(OCCCCCCCC)OCCCCCCCC", "PDI": 0.095}

// for each compound in input: emit PDI
1. CCCCCCCCCOC(=O)CCCCCCCN(CCCCCCCC(=O)OC(CCCCCCCC)CCCCCCCC)CC(O)CC (stereo not drawn)
2. CCCCCCCCCOC(=O)CCCCCCCN(CCCCCCCC(=O)OC(CCCCCCCC)CCCCCCCC)CCCN/C(=N/S(C)(=O)=O)N(C)C
3. CCCCCCCCCOC(=O)CCCCCCCN(CCO)CCCCCCCCCOP(=O)(OCCCCCCCCC)OCCCCCCCCC
4. CCCCCCCCCC(C)(O)CCCCCCCCN(CCO)CCCCCCCC(=O)OC(CCCCCCCC)CCCCCCCC (stereo not drawn)
5. CCCCCCCC/C=C\COC(=O)CCCCCN(CCO)CCCCCC(=O)OC/C=C\CCCCCCCC
6. CCCCCCCCC(CCCCCCCC)OC(=O)CCCCCCCN(CCO)CCCC(=O)OCCCCC

Given back:
1. 0.13
2. 0.11
3. 0.19
4. 0.14
5. 0.84
6. 0.19

Asked: Report PDI for `CCCCCCCCCOC(=O)CCCCCCCN(CCCCCCCC(=O)OC(CCCCCCCC)CCCCCCCC)CCCOC` please.
Given back: 0.16

* * *

# assayText: Apparent (surface) pKa of the LNP formulation (TNS assay)
# Type: physicochemical
# runConditions: Table 1A
Please respond with reported pKa for every item in the list.
Answers are plain numbers.

Reference set, count: 4
{"compound": "CCCCCCCCC(C)OC(=O)CCCCCCCN(CCO)CCCCCCCOC(=O)C(CCCCCCCC)CCCCCCCC (centres unmarked)", "pKa": 6.47}
{"compound": "CCCCCCCCCOC(=O)CCCCCCCN(CCCCCCCC(=O)OC(CCCCCCCC)CCCCCCCC)CCCOC(=O)NC", "pKa": 6.15}
{"compound": "CCCC/C=C\\CCC(CC/C=C\\CCCC)OC(=O)CCCCCCCN(CCO)CCCCCC(=O)OCCCCCCCCCCC", "pKa": 6.70}
{"compound": "CCCCCCCCCC(C)(O)CCCCCCCCN(CCO)CCCCCCCC(=O)OC(CCCCCCCC)CCCCCCCC (centres unmarked)", "pKa": 6.48}

Hi, could you look up pKa for each item in my list?
1. CCCCCCCCCOC(=O)CCCCCCCN(CCCCCCCC(=O)OC(CCCCCCCC)CCCCCCCC)CC(C)O (centres unmarked)
2. CCCCCCCCC(CCCCCCCC)C(=O)OCCCCCCCN(CCO)C(C)CCCCCCCCOC(=O)CCCCCCC (centres unmarked)
3. CCCCCCCCCOC(=O)CCCCCCCN(CCCCCCCC(=O)OC(CCCCCCCC)CCCCCCCC)CCCN1C(=O)CNC1=O
4. CCCCCCCCCOC(=O)CCCCCCCN(CCCCCCCC(=O)OC(CCCCCCCC)CCCCCCCC)CCCNC(=S)NC
5. CCCCCCCCC(CCCCCCCC)OC(=O)CCCCCCCN(CCO)C(C)CCCCCCCCOC(=O)CCCCCCC (centres unmarked)

Given back:
1: 6.09; 2: 6.08; 3: 6.65; 4: 6.93; 5: 6.08

Answer for every listed entry: what is its pKa? The entries follow.
1. CCCCCCCCCOC(=O)CCCCCCCN(CCCCCCCC(=O)OC(CCCCCCCC)CCCCCCCC)CCOC(C)=O
2. CCCCCCCCCOC(=O)CCCCCCCN(CCCCCCCC(=O)OC(CCCCCCCC)CCCCCCCC)CCCNC(=O)CO

Given back:
1. 4.87
2. 7.62

* * *

Hi there, I'd appreciate the recorded Total flux (p/s) 0.01 mpk Dose for every entry that follows.
# Test system: luciferase (Luc) mRNA
# assayText: Luc expression (total flux) after intramuscular administration
# Type: in vivo, mice
# runConditions: Table 5B; 6 hours after intramuscular administration, 0.01 mpk
One number for each entry, in p/s.

Worked examples, 2 compounds total:
{"compound": "CCCCCCCCCOC(=O)CCCCCCCN(CCCCCCCC(=O)OC(CCCCCCCC)CCCCCCCC)CC(O)CO (stereo not drawn)", "targetOrTestSystem": "luciferase (Luc) mRNA", "endpointResult": "8.83E+06"}
{"compound": "CCCCCCCCCOC(=O)CCCCCCCN(CCCCCCCC(=O)OC(CCCCCCCC)CCCCCCCC)CCCNC(=O)N(C)C", "targetOrTestSystem": "luciferase (Luc) mRNA", "endpointResult": "1.21E+08"}

Query compound follows.
Asked: I would be grateful if you could share the reported Total flux (p/s) 0.01 mpk Dose for `CCCCCCCCCOC(=O)CCCCCCCN(CCCCCCCC(=O)OC(CCCCCCCC)CCCCCCCC)CCCNC(C)=O` .
Given back: 4.60E+08

* * *

# assayText: Encapsulation efficiency of RNA (QUANT-IT RIBOGREEN RNA assay)
# Assay type: physicochemical
# runConditions: Table 1B; formulated with hEPO mRNA
Exercise: state measured EE (%) for each of the compounds provided.
Give bare numbers, in %.

Use the examples below as a reference point.
{"compound": "CCCCCCCCC(CCCCCCCC)OC(=O)CCCCCCCN(CCO)CCCCCC(=O)OC(C)CCCCCCCCOC(C)=O (stereo not drawn)", "unitString": "%", "EE (%)": 40.9}
{"compound": "CCCC/C=C\\CCC(CC/C=C\\CCCC)OC(=O)CCCCCCCN(CCO)CCCCCCCC(=O)OCCCCCCCCC", "unitString": "%", "EE (%)": 95.20}

Asked: What value of EE (%) has been recorded for this entry: `CCCCCCCCCOC(=O)CCCCCCCNCCCCCCCC(=O)OC(CCCCCCCC)CCCCCCCC`
Given back: 99.3

* * *

# System: luciferase (Luc) mRNA
# assayText: Luc expression (total flux) after intramuscular administration
# Assay type: in vivo, mice
# runConditions: 6 hours after intramuscular administration, 0.001 mpk, Luc mRNA and H10 mRNA
Consider the following compounds; for each one, report its Total flux, 0.001 mpk Dose.
One number for each entry, in p/s.

{"compound": "CCCCCCCCC(CCC)OC(=O)CCCCCCCN(CCO)CCCCCCCC(=O)OC(CCCCCCCC)CCCCCCCC (stereo not drawn)", "targetOrTestSystem": "luciferase (Luc) mRNA", "Total flux, 0.001 mpk Dose / p/s": "6.56E+05"}
{"compound": "CCCCCCCCCCCOC(=O)CCCCCN(CCO)CCCCCCCC(=O)OC(CCCCCCCC)CCCCCCCC", "targetOrTestSystem": "luciferase (Luc) mRNA", "Total flux, 0.001 mpk Dose / p/s": "3.53E+06"}

Dear colleague, could you please provide Total flux, 0.001 mpk Dose for the compounds listed below?
1. CCCCCCCCC(CCCCCCCC)OC(=O)CCCCCCCN(CCO)CCCCCCCC(=O)OC(CCCCCCCC)CCCCCCCC
2. CCCCCCCCCOC(=O)CCCCCCCN(CCO)CCCCCCCOC(=O)C(CCCCCCCC)CCCCCCCC
3. CCCCC/C=C\C/C=C\CCCCCCCCC(CCCCCCCC/C=C\C/C=C\CCCCC)OC(=O)CCCN(C)C [MC3, DLin-MC3-DMA, reference compound]
4. CCCCCCCCC(C)OC(=O)CCCCCCCN(CCO)CCCCCCCC(=O)OC(CCCCCCCC)CCCCCCCC (stereo not drawn)

Given back:
1. 7.64E+05
2. 2.47E+06
3. 2.76E+06
4. 4.69E+05
